Method description: Pharmacokinetic assay in mice, plasma concentration by LC-MS/MS
Assay type: in vivo, CD-1 male mice
Assay setup: male, CD-1, mouse, IV, 2 mg/kg
Protocol: Assay 2: Pharmacokinetic Assay by Using LC-MS/MS to Determine the Compound Concentration in Mice […] All collected plasma samples were stored on dry ice or in a freezer until analysis. The drug concentration was determined using a Triple-quadrupole MS system (SCIEX), including standard curve and quality control preparation, and sample preparation. […]
Assign clearance to each entry below.
The response must be a number in mL/min/kg with no trailing unit.

Documented clearance of [O-][S+]1CCc2nc(N3CCC(c4ncc(Cl)cn4)CC3)nc(NC3(CO)CCC3)c21 (centres unmarked) [Control 1, reference compound] : 11.8

Documented clearance of [O-][S+]1CCc2nc(N3Cc4ccc(Cl)cc4C3)nc(NC3(CO)CCC3)c21 (racemic) : 2.4

###

Assign pIC50 to each entry below.
System name: PDE4B2 (Homo sapiens, UniProt Q07343)
Construct: purchased BPS bioscience
Sequence (Q07343 1-564 isoform Q07343-2): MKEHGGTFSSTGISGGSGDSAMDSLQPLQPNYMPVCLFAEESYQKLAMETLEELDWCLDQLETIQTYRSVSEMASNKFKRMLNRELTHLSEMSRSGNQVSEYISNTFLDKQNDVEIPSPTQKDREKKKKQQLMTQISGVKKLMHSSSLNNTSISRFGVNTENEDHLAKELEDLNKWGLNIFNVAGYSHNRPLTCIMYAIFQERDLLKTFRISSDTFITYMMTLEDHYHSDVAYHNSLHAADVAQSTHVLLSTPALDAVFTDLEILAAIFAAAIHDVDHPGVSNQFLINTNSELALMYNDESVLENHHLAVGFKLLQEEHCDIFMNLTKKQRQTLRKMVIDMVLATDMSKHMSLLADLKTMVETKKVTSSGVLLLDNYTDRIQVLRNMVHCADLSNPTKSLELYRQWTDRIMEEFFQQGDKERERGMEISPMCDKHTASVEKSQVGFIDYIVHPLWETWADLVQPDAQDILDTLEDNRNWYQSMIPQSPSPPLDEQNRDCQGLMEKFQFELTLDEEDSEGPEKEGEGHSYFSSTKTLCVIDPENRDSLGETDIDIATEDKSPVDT
Method description: In vitro PDE4B2 enzyme inhibitory activity (AMP-Glo)
Assay type: biochemical
Assay setup: PDE4B2 enzyme inhibition; read-out: PDE4B2 IC50
pIC50: −log10 of the molar value.

Documented pIC50 of COc1cc(C2(OC)CN(c3nc4c(c(NC5(CO)CCC5)n3)[S+]([O-])CC4)C2)ccc1Cl (racemic) : ≥ 8.70

Documented pIC50 of CC(C)(O)c1ccc2c(c1)CN(c1nc3c(c(NC4(CO)CCC4)n1)[S+]([O-])CC3)C2 (racemic) : ≥ 8.70

Documented pIC50 of COc1ccc2c(c1Cl)CN(c1nc3c(c(NC4(CO)CCC4)n1)[S+]([O-])CC3)C2 (racemic) : 8.30 to 8.70

Documented pIC50 of COc1cc(C2(O)CN(c3nc4c(c(NC5CCOCC5)n3)[S+]([O-])CC4)C2)ccc1Cl (racemic) : 8.30 to 8.70
